Values compiled from patent US20260242478A1.

# SUBJECT_OF_TEST: anti-CD28 scFv (VH - linker 1 - VL) (biotinylated (site not stated))
# Sequence (scFv, as listed by the source): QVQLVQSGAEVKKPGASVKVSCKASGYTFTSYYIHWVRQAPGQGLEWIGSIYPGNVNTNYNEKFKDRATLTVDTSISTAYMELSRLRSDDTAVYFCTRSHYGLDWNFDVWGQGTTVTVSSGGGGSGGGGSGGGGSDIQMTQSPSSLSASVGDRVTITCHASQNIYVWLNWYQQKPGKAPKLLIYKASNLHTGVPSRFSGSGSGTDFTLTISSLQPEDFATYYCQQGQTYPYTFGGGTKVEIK
# ASSAY_PROTOCOL: phage ELISA; biotinylated anti-CD28 scFv on neutravidin plate, clonal phage supernatant, anti-M13-HRP detection;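 also: before phage addition, wells were pretreated with soluble CD28 protein in blocking buffer, or with blocking buffer only as the comparison, then phage were added without washing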
Where no end group is shown, it is not given here.
Quick list: CD28 scFv signal per entry.
// return a plain number; no unit text

// solved cases for CD28 scFv signal follow
MHWCPRDLWVVCFN (peptide, not shown: large carriers, cysteine pairing not given here; also: fused to phage pIII protein, pIII and linker sequence not given here, Clonal phage of the Peptide-9 library) [Phage-147]: 1.83
MDWCPKHLWIECFA (peptide, not shown: large carriers, cysteine pairing not given here; also: fused to phage pIII protein, pIII and linker sequence not given here, Clonal phage of the Peptide-9 library) [Phage-145]: 1.98
MSWCPQDLWHVCFN (peptide, not shown: large carriers, cysteine pairing not given here; also: displayed as fusion to phage pIII, linker and pIII sequence not given here, Clonal phage of the Peptide-9 library) [Phage-167]: 0.86

Now look at this one.
Task: Need CD28 scFv signal, item MDWCPKYLWDKCFH (peptide, not shown: large carriers, Clonal phage of the Peptide-9 library) [Phage-152]
Result: 1.54
